# Study System: T1, full-length human Tau (Tau441; 2N4R), recombinant (human, UniProt P10636 1-758)
# T1 construct: made in E. coli, His6-Smt3 tag removed; biotinylated through amines for Octet and phage work; also called r-Tau; recombinant Tau
# T1 sequence (P10636 other isoform, or with tags, fused parts or gaps limits assumed): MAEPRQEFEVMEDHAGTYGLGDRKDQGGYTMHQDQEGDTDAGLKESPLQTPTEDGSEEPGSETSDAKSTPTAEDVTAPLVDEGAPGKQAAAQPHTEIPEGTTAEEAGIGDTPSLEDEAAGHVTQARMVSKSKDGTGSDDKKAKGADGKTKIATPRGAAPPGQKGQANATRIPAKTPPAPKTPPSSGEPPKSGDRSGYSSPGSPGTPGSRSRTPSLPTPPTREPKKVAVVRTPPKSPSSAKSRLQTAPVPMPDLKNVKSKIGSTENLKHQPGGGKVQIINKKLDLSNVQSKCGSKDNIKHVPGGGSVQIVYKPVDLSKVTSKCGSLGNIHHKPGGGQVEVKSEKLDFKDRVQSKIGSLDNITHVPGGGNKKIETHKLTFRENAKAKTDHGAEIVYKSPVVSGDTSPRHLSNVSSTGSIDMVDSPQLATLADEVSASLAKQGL
# Assay Text: SPR Biacore
Value Kind: kon (M⁻¹ s⁻¹)
Number only, in M⁻¹ s⁻¹; omit the unit.

QUERY: So what does the record say about kon for Clone with H1_1 (antibody, V domains shown) VH: EVQLLESGGGLVQPGGSLRLSCAASGFKFSRVGVSWVRQAPGKGLEWVASISGDGGSYIHYADSVKGRFTISRDNSKNTLYLQMNSLRAEDTAVYYCARLPYWGQGTLVTVSS VL: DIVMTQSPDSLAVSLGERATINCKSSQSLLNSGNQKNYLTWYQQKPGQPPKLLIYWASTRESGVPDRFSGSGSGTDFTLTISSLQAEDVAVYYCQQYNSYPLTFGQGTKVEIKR ?
RESULT: 2.07e+06

QUERY: So what does the record say about kon for Clone with L1_3 and H1_4 (antibody, V domains shown, IgG based on hu1C7.v2) VH: EVQLLESGGGLVQPGGSLRLSCAASGFRFSGPGMSWVRQAPGKGLEWVASISGDGGSYIHYADSVKGRFTISRDNSKNTLYLQMNSLRAEDTAVYYCARLPYWGQGTLVTVSS VL: DIVMTQSPDSLAVSLGERATINCKSSQSLHRSGTQKDYLVWYQQKPGQPPKLLIYWASTRESGVPDRFSGSGSGTDFTLTISSLQAEDVAVYYCQQYNSYPLTFGQGTKVEIK ?
RESULT: 2.28e+06

QUERY: So what does the record say about kon for Clone with L1_1 (antibody, V domains shown) VH: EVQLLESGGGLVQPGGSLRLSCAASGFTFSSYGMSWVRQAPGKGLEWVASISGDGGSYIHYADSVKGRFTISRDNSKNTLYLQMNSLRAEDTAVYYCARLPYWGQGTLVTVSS VL: DIVMTQSPDSLAVSLGERATINCKSSHSLYSSRRHKHYLAWYQQKPGQPPKLLIYWASTRESGVPDRFSGSGSGTDFTLTISSLQAEDVAVYYCQQYNSYPLTFGQGTKVEIKR ?
RESULT: 1.54e+06

QUERY: So what does the record say about kon for Clone with H3_1 (antibody, V domains shown) VH: EVQLLESGGGLVQPGGSLRLSCAASGFTFSSYGMSWVRQAPGKGLEWVASISGDGGSYIHYADSVKGRFTISRDNSKNTLYLQMNSLRAEDTAVYYCAKLPFWGQGTLVTVSS VL: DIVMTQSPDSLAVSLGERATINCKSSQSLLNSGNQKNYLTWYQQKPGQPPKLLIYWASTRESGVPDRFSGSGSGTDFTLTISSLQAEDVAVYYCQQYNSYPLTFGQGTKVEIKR ?
RESULT: 1.97e+06

QUERY: So what does the record say about kon for Clone with H1_2 (antibody, V domains shown, IgG based on hu1C7.v2) VH: EVQLLESGGGLVQPGGSLRLSCAASGFTFSRVGTSWVRQAPGKGLEWVASISGDGGSYIHYADSVKGRFTISRDNSKNTLYLQMNSLRAEDTAVYYCARLPYWGQGTLVTVSS VL: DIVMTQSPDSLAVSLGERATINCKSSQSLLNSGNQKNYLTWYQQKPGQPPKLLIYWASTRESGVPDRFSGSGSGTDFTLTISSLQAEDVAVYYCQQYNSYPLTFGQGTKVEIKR ?
RESULT: 1.56e+06

QUERY: So what does the record say about kon for Clone with L1_3 and H3_1 (antibody, V domains shown, IgG based on hu1C7.v2) VH: EVQLLESGGGLVQPGGSLRLSCAASGFTFSSYGMSWVRQAPGKGLEWVASISGDGGSYIHYADSVKGRFTISRDNSKNTLYLQMNSLRAEDTAVYYCAKLPFWGQGTLVTVSS VL: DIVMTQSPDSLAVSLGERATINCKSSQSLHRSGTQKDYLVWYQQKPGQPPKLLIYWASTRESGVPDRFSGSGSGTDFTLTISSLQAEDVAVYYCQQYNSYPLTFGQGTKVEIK ?
RESULT: 2.36e+06
